run_parameters: 308.15 K; 101.33 kPa; Liquid
As shown below, each of these molecules has a reported mass density value.
value_type: mass density (kg/m3)

- CCCCCO: 803.302
- CO: 777.067
- CCCCCCCO: 812.385
- CCCCCCOCCOCCO: 906.642
- CCCO: 791.765

* * *

run_parameters: 298.15 K; 101.33 kPa; Liquid
As shown below, each of these compounds has a reported mass density value.
value_type: mass density (kg/m3)

* CCCCCO | 811.001
* CCCCCCOCCOCCO | 915.522
* CCCCCCCO | 818.789
* CO | 786.548
* CCCO | 799.666

* * *

As shown below, each of these compounds has a reported mass density value.
run_parameters: 288.15 K; 101.33 kPa; Liquid
value_type: mass density (kg/m3)

* CO | 795.969
* CCCCCCOCCOCCO | 924.348
* CCCCCCCO | 825.943
* CCCCCO | 818.336
* CCCO | 807.898
